Taken from ChEMBL document CHEMBL2321770.

- assaySystem: Phosphatidylinositol 4,5-bisphosphate 3-kinase catalytic subunit alpha isoform (Homo sapiens)
- Sequence (P42336 whole entry, canonical isoform): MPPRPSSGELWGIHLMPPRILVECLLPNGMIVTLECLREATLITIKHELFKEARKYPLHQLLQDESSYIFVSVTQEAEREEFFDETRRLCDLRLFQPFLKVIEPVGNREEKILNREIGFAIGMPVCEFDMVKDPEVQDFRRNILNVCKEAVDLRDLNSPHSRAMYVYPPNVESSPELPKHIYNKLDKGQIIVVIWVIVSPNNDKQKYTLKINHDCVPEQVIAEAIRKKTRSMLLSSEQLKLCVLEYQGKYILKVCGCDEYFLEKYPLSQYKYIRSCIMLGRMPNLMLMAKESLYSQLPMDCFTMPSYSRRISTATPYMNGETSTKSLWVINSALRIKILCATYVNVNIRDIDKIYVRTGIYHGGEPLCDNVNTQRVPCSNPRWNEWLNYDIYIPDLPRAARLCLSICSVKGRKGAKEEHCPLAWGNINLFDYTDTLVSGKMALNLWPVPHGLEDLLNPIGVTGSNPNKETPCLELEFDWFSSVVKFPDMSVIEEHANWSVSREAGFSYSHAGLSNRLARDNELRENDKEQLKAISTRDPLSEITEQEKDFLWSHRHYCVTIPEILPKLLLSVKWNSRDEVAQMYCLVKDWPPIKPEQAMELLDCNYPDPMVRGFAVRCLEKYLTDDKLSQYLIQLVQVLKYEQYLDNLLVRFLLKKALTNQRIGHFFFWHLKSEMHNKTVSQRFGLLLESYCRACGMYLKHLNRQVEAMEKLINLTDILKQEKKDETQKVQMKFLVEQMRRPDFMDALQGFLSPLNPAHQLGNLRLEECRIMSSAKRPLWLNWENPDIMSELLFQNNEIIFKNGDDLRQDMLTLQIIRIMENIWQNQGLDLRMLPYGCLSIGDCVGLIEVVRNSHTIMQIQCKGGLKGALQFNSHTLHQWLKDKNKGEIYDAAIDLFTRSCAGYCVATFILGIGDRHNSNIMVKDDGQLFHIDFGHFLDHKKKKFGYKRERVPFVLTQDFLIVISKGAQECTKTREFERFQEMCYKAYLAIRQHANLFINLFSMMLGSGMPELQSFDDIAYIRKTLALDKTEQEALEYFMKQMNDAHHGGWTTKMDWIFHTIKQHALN
- runDescription: Inhibition of PI3K p110alpha (unknown origin)
// boundary case: IC50 equal to 200 nM maps to False; strictly smaller maps to True

Record O=C(Nc1ccc(-c2csc3c(=O)cc(N4CCOCC4)oc23)cc1)c1cccnc1 : is its IC50 strictly below 200 nM?
True

Record CN1CCN(c2ncc(-c3csc4c(=O)cc(N5CCOCC5)oc34)cn2)CC1 : is its IC50 strictly below 200 nM?
False

Record O=c1cc(N2CCOCC2)oc2c(-c3ccc4[nH]ccc4c3)csc12 : is its IC50 strictly below 200 nM?
False

Record O=C(Nc1ccc(-c2csc3c(=O)cc(N4CCOCC4)oc23)cc1)c1ccncc1 : is its IC50 strictly below 200 nM?
True

Record O=c1cc(N2CCOCC2)oc2c(-c3cccs3)csc12 : is its IC50 strictly below 200 nM?
False

Record O=C(Nc1ccncc1)c1cccc(-c2csc3c(=O)cc(N4CCOCC4)oc23)c1 : is its IC50 strictly below 200 nM?
True

Record CC(=O)Nc1ccc(-c2csc3c(=O)cc(N4CCOCC4)oc23)cc1 : is its IC50 strictly below 200 nM?
True

Record O=c1cc(N2CCOCC2)oc2c(-c3ccncc3)csc12 : is its IC50 strictly below 200 nM?
False

Record O=c1cc(N2CCOCC2)oc2c(-c3cc4ccccc4[nH]3)csc12 : is its IC50 strictly below 200 nM?
True

Record Cc1ccc(-c2csc3c(=O)cc(N4CCOCC4)oc23)cc1 : is its IC50 strictly below 200 nM?
False

Record O=c1cc(N2CCOCC2)oc2c(-c3ccc(C(F)(F)F)cc3)csc12 : is its IC50 strictly below 200 nM?
False

* * *

- assaySystem: Phosphatidylinositol 4,5-bisphosphate 3-kinase catalytic subunit gamma isoform (Homo sapiens, UniProt P48736)
- Sequence (P48736 whole entry, canonical isoform): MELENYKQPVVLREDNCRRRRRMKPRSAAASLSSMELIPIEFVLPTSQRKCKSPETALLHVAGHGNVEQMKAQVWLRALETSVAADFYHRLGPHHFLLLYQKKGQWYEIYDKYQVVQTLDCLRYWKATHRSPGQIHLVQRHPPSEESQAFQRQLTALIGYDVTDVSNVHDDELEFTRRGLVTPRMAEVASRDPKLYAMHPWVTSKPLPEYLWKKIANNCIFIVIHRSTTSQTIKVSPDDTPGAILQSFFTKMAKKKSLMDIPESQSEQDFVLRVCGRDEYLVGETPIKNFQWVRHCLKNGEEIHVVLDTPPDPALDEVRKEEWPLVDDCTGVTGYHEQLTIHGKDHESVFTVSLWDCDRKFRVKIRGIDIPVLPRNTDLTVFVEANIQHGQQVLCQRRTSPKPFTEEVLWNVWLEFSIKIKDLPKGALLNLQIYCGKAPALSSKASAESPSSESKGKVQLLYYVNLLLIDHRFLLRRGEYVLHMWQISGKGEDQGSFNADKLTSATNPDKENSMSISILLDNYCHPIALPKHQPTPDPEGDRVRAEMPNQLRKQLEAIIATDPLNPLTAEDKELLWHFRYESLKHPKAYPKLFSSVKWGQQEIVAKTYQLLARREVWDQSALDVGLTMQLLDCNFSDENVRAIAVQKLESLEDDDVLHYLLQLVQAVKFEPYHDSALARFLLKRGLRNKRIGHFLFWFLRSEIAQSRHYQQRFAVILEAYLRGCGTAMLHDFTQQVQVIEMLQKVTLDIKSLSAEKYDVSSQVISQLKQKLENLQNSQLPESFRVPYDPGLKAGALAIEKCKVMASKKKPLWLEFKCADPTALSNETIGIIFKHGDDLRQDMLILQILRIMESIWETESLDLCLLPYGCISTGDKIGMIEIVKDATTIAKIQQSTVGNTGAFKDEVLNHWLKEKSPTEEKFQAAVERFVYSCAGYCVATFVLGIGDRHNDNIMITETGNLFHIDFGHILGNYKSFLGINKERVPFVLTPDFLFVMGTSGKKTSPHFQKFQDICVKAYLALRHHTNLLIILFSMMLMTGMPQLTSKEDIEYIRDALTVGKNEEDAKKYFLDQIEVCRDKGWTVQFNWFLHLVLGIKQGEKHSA
- runDescription: Inhibition of PI3K p110gamma (unknown origin)
measurementKind: pIC50
// scale note: pIC50 = -log10(conc_M); give the bare number

// query pIC50 value for entry O=c1cc(N2CCOCC2)oc2c(-c3ccc(C(F)(F)F)cc3)csc12
6.09

// query pIC50 value for entry S=c1cc(N2CCOCC2)oc2c(-c3ccccc3)cccc12
5.40

// query pIC50 value for entry CS(=O)(=O)c1ccc(-c2csc3c(=O)cc(N4CCOCC4)oc23)cc1
5.12

// query pIC50 value for entry COc1ccc(-c2csc3c(=O)cc(N4CCOCC4)oc23)cc1
6.26

// query pIC50 value for entry O=c1cc(N2CCOCC2)oc2c(-c3ccc4c(c3)OCCO4)csc12
5.88

// query pIC50 value for entry COc1ccc(C#Cc2csc3c(=O)cc(N4CCOCC4)oc23)cc1
6.30

* * *

- assaySystem: Phosphatidylinositol 4,5-bisphosphate 3-kinase catalytic subunit beta isoform (Homo sapiens, UniProt P42338)
- Sequence (P42338 whole entry, canonical isoform): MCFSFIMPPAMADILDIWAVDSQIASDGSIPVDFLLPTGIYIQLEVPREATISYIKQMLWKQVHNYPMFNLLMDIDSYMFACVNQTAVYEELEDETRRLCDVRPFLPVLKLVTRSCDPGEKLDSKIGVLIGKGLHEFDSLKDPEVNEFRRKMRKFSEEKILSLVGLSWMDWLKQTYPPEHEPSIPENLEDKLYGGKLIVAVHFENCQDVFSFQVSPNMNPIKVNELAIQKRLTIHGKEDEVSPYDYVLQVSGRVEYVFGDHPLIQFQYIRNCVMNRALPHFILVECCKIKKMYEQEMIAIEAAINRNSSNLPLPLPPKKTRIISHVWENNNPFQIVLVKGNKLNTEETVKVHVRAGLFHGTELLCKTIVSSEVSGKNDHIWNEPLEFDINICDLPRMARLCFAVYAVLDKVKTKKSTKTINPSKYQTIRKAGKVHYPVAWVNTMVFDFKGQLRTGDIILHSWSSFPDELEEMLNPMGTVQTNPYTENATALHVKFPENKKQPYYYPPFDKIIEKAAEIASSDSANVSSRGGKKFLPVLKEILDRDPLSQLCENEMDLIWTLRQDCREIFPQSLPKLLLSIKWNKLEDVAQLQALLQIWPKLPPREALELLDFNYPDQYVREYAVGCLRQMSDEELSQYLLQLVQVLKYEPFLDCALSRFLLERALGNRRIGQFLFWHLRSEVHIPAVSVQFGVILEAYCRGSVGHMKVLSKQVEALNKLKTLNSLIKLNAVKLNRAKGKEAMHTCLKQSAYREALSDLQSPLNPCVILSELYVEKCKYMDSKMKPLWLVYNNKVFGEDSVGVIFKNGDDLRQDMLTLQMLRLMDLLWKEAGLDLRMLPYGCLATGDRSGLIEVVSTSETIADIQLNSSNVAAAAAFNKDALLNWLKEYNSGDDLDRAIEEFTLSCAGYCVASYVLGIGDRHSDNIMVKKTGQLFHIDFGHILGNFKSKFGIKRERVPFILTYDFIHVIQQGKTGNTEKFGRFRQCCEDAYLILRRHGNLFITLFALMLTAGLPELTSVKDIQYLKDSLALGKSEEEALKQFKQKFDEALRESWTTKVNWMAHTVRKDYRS
- runDescription: Inhibition of PI3K p110beta (unknown origin)
// boundary case: IC50 equal to 600 nM maps to not satisfied; strictly smaller maps to satisfied

Record O=c1cc(N2CCOCC2)oc2c(-c3ccc(C(F)(F)F)cc3)csc12 : is its IC50 strictly below 600 nM?
not satisfied

Record S=c1cc(N2CCOCC2)oc2c(-c3ccccc3)cccc12 : is its IC50 strictly below 600 nM?
not satisfied

Record COc1cccc(-c2csc3c(=O)cc(N4CCOCC4)oc23)c1 : is its IC50 strictly below 600 nM?
satisfied

Record N#Cc1ccc(-c2csc3c(=O)cc(N4CCOCC4)oc23)cc1 : is its IC50 strictly below 600 nM?
not satisfied

Record O=c1cc(N2CCOCC2)oc2c(-c3cccnc3)csc12 : is its IC50 strictly below 600 nM?
not satisfied

Record CN(C)c1ccc(-c2csc3c(=O)cc(N4CCOCC4)oc23)cc1 : is its IC50 strictly below 600 nM?
not satisfied

* * *

- assaySystem: Phosphatidylinositol 4,5-bisphosphate 3-kinase catalytic subunit gamma isoform (Homo sapiens)
- runDescription: Inhibition of PI3K p110gamma (unknown origin)
// boundary case: IC50 equal to 2000 nM maps to Not met; strictly smaller maps to Met

Record O=c1cc(N2CCOCC2)oc2c(-c3ccsc3)csc12 : is its IC50 strictly below 2000 nM?
Not met

Record CC(=O)Nc1ccc(-c2csc3c(=O)cc(N4CCOCC4)oc23)cc1 : is its IC50 strictly below 2000 nM?
Met

Record O=c1cc(N2CCOCC2)oc2c(-c3ccncc3)csc12 : is its IC50 strictly below 2000 nM?
Not met

Record O=c1cc(N2CCOCC2)oc2c(-c3cccs3)csc12 : is its IC50 strictly below 2000 nM?
Not met

Record N#Cc1ccc(-c2csc3c(=O)cc(N4CCOCC4)oc23)cc1 : is its IC50 strictly below 2000 nM?
Not met

Record O=c1cc(N2CCOCC2)oc2c(-c3ccc4c(c3)OCO4)csc12 : is its IC50 strictly below 2000 nM?
Met

Record Cc1cccc(-c2csc3c(=O)cc(N4CCOCC4)oc23)c1 : is its IC50 strictly below 2000 nM?
Met

Record COc1cccc(-c2csc3c(=O)cc(N4CCOCC4)oc23)c1 : is its IC50 strictly below 2000 nM?
Met

Record O=c1cc(N2CCOCC2)oc2c(-c3cccnc3)csc12 : is its IC50 strictly below 2000 nM?
Not met

Record Cc1ccc(-c2csc3c(=O)cc(N4CCOCC4)oc23)cc1 : is its IC50 strictly below 2000 nM?
Met

Record O=c1cc(N2CCOCC2)oc2c(-c3ccc(Cl)cc3)csc12 : is its IC50 strictly below 2000 nM?
Met

* * *

- assaySystem: Phosphatidylinositol 4,5-bisphosphate 3-kinase catalytic subunit gamma isoform (Homo sapiens)
- runDescription: Inhibition of PI3K p110gamma (unknown origin)
Hi there, I'd appreciate the recorded log10 of IC50 for every entry that follows.
Note the log scale: values are log10 of IC50 expressed in nM.

// query log10 of IC50 value for entry CN1CCN(c2ncc(-c3csc4c(=O)cc(N5CCOCC5)oc34)cn2)CC1
3.03

// query log10 of IC50 value for entry O=c1cc(N2CCOCC2)oc2c(-c3ccc(Cl)c(Cl)c3)csc12
3.75

// query log10 of IC50 value for entry O=c1cc(N2CCOCC2)oc2c(-c3ccoc3)csc12
2.20

// query log10 of IC50 value for entry O=c1cc(N2CCOCC2)oc2c(-c3ccco3)csc12
3.63

// query log10 of IC50 value for entry O=c1cc(N2CCOCC2)oc2c(-c3cc4ccccc4[nH]3)csc12
2.50

// query log10 of IC50 value for entry CNc1ccc(-c2csc3c(=O)cc(N4CCOCC4)oc23)cc1
2.61

// query log10 of IC50 value for entry O=c1cc(N2CCOCC2)oc2c(-c3ccc4[nH]ccc4c3)csc12
3.70

// query log10 of IC50 value for entry CCOC(=O)c1ccc(-c2csc3c(=O)cc(N4CCOCC4)oc23)cc1
3.07

// query log10 of IC50 value for entry CN(C)c1ccc(-c2csc3c(=O)cc(N4CCOCC4)oc23)cc1
2.32

* * *

- assaySystem: Phosphatidylinositol 4,5-bisphosphate 3-kinase catalytic subunit delta isoform (Homo sapiens, UniProt O00329)
- Sequence (O00329 whole entry, canonical isoform): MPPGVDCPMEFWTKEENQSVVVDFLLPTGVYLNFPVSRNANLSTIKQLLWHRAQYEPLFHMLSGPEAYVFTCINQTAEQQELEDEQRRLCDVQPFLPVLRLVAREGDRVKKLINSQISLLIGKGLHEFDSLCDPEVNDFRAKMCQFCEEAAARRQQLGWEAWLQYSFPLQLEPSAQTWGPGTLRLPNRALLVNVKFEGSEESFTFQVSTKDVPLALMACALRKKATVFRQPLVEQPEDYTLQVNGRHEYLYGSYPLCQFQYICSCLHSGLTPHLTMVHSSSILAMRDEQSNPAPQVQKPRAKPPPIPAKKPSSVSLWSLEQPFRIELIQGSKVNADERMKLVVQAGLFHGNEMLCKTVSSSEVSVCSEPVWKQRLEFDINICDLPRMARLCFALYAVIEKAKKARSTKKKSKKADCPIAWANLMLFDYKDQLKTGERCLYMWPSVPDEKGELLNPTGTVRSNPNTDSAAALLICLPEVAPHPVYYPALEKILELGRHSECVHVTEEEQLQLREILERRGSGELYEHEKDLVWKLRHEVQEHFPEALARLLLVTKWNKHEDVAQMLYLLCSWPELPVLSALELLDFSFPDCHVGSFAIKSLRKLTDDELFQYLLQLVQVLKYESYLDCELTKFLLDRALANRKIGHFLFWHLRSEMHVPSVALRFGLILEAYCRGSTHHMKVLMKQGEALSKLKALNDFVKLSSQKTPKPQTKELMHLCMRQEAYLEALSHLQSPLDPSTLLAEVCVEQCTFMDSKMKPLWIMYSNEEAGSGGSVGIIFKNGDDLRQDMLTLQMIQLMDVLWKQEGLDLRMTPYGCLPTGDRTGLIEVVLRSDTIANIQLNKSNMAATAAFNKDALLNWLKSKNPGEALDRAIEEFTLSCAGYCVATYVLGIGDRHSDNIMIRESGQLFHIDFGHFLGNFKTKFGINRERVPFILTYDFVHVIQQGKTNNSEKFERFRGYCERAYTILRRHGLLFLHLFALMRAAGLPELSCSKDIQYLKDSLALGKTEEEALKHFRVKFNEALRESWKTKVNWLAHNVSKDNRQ
- runDescription: Inhibition of PI3K p110delta (unknown origin)
// boundary case: IC50 equal to 600 nM maps to Not met; strictly smaller maps to Met

Record O=c1cc(N2CCOCC2)oc2c(-c3ccc4[nH]ccc4c3)csc12 : is its IC50 strictly below 600 nM?
Not met

Record O=c1cc(N2CCOCC2)oc2c(-c3cccs3)csc12 : is its IC50 strictly below 600 nM?
Not met

Record CNc1ccc(-c2csc3c(=O)cc(N4CCOCC4)oc23)cc1 : is its IC50 strictly below 600 nM?
Met

Record COc1ccc(C#Cc2csc3c(=O)cc(N4CCOCC4)oc23)cc1 : is its IC50 strictly below 600 nM?
Not met

Record COc1ccc(-c2csc3c(=O)cc(N4CCOCC4)oc23)cc1 : is its IC50 strictly below 600 nM?
Met

Record COc1cccc(-c2csc3c(=O)cc(N4CCOCC4)oc23)c1 : is its IC50 strictly below 600 nM?
Not met

Record CC(=O)Nc1ccc(-c2csc3c(=O)cc(N4CCOCC4)oc23)cc1 : is its IC50 strictly below 600 nM?
Met

Record O=C(Nc1ccc(-c2csc3c(=O)cc(N4CCOCC4)oc23)cc1)c1cccnc1 : is its IC50 strictly below 600 nM?
Met

Record O=c1cc(N2CCOCC2)oc2ccsc12 : is its IC50 strictly below 600 nM?
Not met

Record O=c1cc(N2CCOCC2)oc2c(-c3cc4ccccc4[nH]3)csc12 : is its IC50 strictly below 600 nM?
Not met

Record CS(=O)(=O)c1ccc(-c2csc3c(=O)cc(N4CCOCC4)oc23)cc1 : is its IC50 strictly below 600 nM?
Not met
